// melting point lookup, one value per entry

For orientation, consider the following solved cases.
The molecule identified as CC1=C(/C=C/C(C)=C/C=C/C(C)=C\C(=O)Nc2ccccc2)C(C)(C)CC=C1c1cncnc1 [Compound 38] registered its melting point at 105 to 107 °C

The molecule identified as CC1=C(/C=C/C(C)=C/C=C/C(C)=C\C(=O)NCCc2ccc(O)cc2)C(C)(C)CCC1n1ccnc1 (stereo not shown) [Compound 25] registered its melting point at 126 to 128 °C

The molecule identified as CC1=C(/C=C/C(C)=C/C=C/C(C)=C\C(=O)NCc2ccc(O)cc2)C(C)(C)CC=C1c1cncnc1 [Compound 39] registered its melting point at 145 to 147 °C

The molecule identified as CC1=C(/C=C/C(C)=C/C=C/C(C)=C\C(=O)NCc2ccc(O)cc2)C(C)(C)CC=C1c1cccnc1 [Compound 36] registered its melting point at 124 to 126 °C

The molecule identified as CC1=C(/C=C/C(C)=C/C=C/C(C)=C\C(=O)NCCc2ccc(O)cc2)C(C)(C)CC=C1c1cccnc1 [Compound 37] registered its melting point at 110 to 112 °C

The molecule identified as CC1=C(/C=C/C(C)=C/C=C/C(C)=C\C(=O)NCc2ccc(F)cc2)C(C)(C)CCC1n1ccnc1 (stereo not shown) [Compound 23] registered its melting point at 93 to 95 °C

Continue with the next molecule.
The molecule identified as CC1=C(/C=C/C(C)=C/C=C/C(C)=C\C(=O)NCCc2ccc(O)cc2)C(C)(C)CC=C1c1cncnc1 [Compound 40] registered its melting point at 115 to 117 °C

----------
// pIC50 lookup, one value per entry
Tested on: MCF-7 human breast cancer cells
Test: MTT cell proliferation assay, MCF-7
Assay type: cell-based
Details: Homo sapiens, MCF7; MCF-7 cells, MTT, SEM < 10%; read-out: GI50s MCF-7
pIC50 here is simply -log10 of the concentration when that concentration is written in mol/L.

For orientation, consider the following solved cases.
The molecule identified as CC1=C(/C=C/C(C)=C/C=C/C(C)=C\C(=O)Nc2ccc(F)cc2)C(C)(C)CCC1n1ccnc1 (stereo not drawn) registered its pIC50 at 6.40

The molecule identified as CC1=C(/C=C/C(C)=C/C=C/C(C)=C\C(=O)NCCc2ccc(O)cc2)C(C)(C)CC=C1c1cncnc1 registered its pIC50 at 5.53

The molecule identified as CC1=C(/C=C/C(C)=C/C=C/C(C)=C\C(=O)Nc2ccccc2O)C(C)(C)CCC1n1ccnc1 (stereo not drawn) registered its pIC50 at 5.96

The molecule identified as CC1=C(/C=C/C(C)=C/C=C/C(C)=C\C(=O)NCc2ccccc2)C(C)(C)CCC1n1ccnc1 (stereo not drawn) registered its pIC50 at 5.01

The molecule identified as CC1=C(/C=C/C(C)=C/C=C/C(C)=C\C(=O)Nc2ccc(O)cc2)C(C)(C)CCC1n1ccnc1 (stereo not drawn) registered its pIC50 at 5.70

More entries:
The molecule identified as CC1=C(/C=C/C(C)=C/C=C/C(C)=C\C(=O)NCc2ccc(O)cc2)C(C)(C)CCC1n1ccnc1 (stereo not drawn) registered its pIC50 at 6.80

The molecule identified as CC1=C(/C=C/C(C)=C/C=C/C(C)=C\C(=O)Nc2ccccc2)C(C)(C)CC=C1c1cccnc1 registered its pIC50 at 5.08

The molecule identified as CC1=C(/C=C/C(C)=C/C=C/C(C)=C\C(=O)Nc2cccc(F)c2)C(C)(C)CCC1n1ccnc1 (stereo not drawn) registered its pIC50 at 5.24

The molecule identified as CC1=C(/C=C/C(C)=C/C=C/C(C)=C\C(=O)NCCc2ccc(O)cc2)C(C)(C)CC=C1c1cccnc1 registered its pIC50 at 5.06

These entries and their values trace back to patent US10793525B2.
